ASSAY NAME: yeast display, Sf9 membrane polyspecificity reagent, FACS + sequencing; frameworks hold sequencing errors
PROPERTY: polyreactivity (PSR sort gate)

These solved cases illustrate the format of a correct answer.
QVQLVESGGGLVQAGGSLRLSCAASGLTFNGYTMGWYRQAPGKERELVAGITHSGSTTYTDSVKGRFTISRDNAKNTVYLQMNSLKPEDTAVYYCNARLGKVRVKDDYWGQGTQVTVSS low polyreactivity
QVQLVESGGGLVQAGGSLRLSCAASGSTFDSNVMGCYRQAPGKERELVAVINGSGSNTYYADSVKGRFTISRDNAKNTVYLQMNSLKPEDTAVYYCAARVYVSRSKRLNYWGQGTQVTVSS high polyreactivity
QVQLVESGGGLVQAGGSLRLSCAASGSISAQNAMGRYRQAPGKERELVATINSGGRTNYADSVKGRFTISRDNAKNTVYLQMNSLNPEDTAVYYCNTVVRGAYTYGDVSKYDYWGQGNQVTVSS low polyreactivity
QVQLVESGRGLVQAGGSLRLSCAASGSIFKYYAMGWYRQAPGKERELVAAITSGGSTSYADSVKGRFTISRDNAKNTVYLQMNSLKPEDTAVYYCAAELRSWRSYGSVWRWYYYWGQGTQVTVSS high polyreactivity

Using known records, supply polyreactivity (PSR sort gate) for `QVQLVESGGGLVQAGGSLRLSCAASGSTFYHNVMGWYRQAPGKERELVASIDTGDSTNYADSVKGRFTISRDNAKNTVYLQMNSLITEHTAVYYCNADSYPALNKRGYEYWGQGTQVTVSS`
low polyreactivity
